Entries annotated with measured PBM E-score
assay target: Cad1 (UniProt P24813)
Sequence: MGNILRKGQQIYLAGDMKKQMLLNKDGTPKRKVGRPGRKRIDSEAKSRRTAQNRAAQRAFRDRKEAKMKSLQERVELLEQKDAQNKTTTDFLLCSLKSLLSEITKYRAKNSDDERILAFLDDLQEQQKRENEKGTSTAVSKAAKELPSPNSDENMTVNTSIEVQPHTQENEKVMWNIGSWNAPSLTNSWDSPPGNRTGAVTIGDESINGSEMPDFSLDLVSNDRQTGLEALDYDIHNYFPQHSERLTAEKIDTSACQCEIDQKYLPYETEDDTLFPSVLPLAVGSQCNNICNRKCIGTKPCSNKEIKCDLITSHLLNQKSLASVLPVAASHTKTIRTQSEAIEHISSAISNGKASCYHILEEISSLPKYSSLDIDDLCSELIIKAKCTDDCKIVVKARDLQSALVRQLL
method: PBM E-score (8-mer binding enrichment) (E-score (-0.5 to 0.5)); higher = stronger / more preferred TF binding
experimental setup: protein concentration: 100 nM; construct: GST-full length
In all, about 33,000 sequences were measured (“E-score (-0.5 to 0.5)”: median about -0.0014, highest 2% from about 0.25 on). Only a selection was taken, and the highest values are over-represented in it overall.
measured quantity: PBM E-score

[
  {
    "sequence string": "GATAACTA",
    "assay target": "Cad1 (UniProt P24813)",
    "measured quantity": "PBM E-score",
    "assay value": 0.1
  },
  {
    "sequence string": "TGTGAAAA",
    "assay target": "Cad1 (UniProt P24813)",
    "measured quantity": "PBM E-score",
    "assay value": 0.103
  },
  {
    "sequence string": "ACACCAAG",
    "assay target": "Cad1 (UniProt P24813)",
    "measured quantity": "PBM E-score",
    "assay value": -0.0199
  }
]

###

Entries annotated with measured PBM E-score
assay target: Cad1 (UniProt P24813)
Sequence: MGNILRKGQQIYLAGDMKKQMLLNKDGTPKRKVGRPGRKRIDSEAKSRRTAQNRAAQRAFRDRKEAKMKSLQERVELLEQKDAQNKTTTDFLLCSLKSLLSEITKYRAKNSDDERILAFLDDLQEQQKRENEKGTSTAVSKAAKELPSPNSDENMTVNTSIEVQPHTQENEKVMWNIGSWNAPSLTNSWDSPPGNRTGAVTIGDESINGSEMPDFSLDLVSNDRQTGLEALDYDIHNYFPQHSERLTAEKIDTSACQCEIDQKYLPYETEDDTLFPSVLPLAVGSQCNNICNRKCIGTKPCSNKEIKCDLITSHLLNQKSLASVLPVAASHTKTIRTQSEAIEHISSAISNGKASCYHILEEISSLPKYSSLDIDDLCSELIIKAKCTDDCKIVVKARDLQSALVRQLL
method: PBM E-score (8-mer binding enrichment) (E-score (-0.5 to 0.5)); higher = stronger / more preferred TF binding
experimental setup: protein concentration: 100 nM; construct: GST-full length
In all, about 33,000 sequences were measured (“E-score (-0.5 to 0.5)”: median about -0.0014, highest 2% from about 0.25 on). This is one part of a sample in which the highest values are shown more often than they occur.

[
  {
    "sequence string": "TCCGCGAA",
    "PBM E-score": 0.202
  },
  {
    "sequence string": "ATTAACAA",
    "PBM E-score": 0.201
  },
  {
    "sequence string": "ACGAAAAG",
    "PBM E-score": 0.0611
  },
  {
    "sequence string": "ATACGTAA",
    "PBM E-score": 0.2
  },
  {
    "sequence string": "GTCGCGAA",
    "PBM E-score": 0.0594
  },
  {
    "sequence string": "ATCGCGAC",
    "PBM E-score": 0.195
  },
  {
    "sequence string": "ATGCATTC",
    "PBM E-score": 0.196
  }
]
